Cited source: patent US6914045B2

System: Enterococcus sp.
Assay: in vitro antibacterial evaluation, MIC by broth dilution
Format: cell-based
Details: broth dilution, 18 hours at 35° C.; strain GC 2243
ENDPOINT_NAME: MIC Enterococcus faecium (GC 2243) (µg/mL)

compound="CC(c1ccccc1)C1NC(=O)CNC(=O)C(CO)NC(=O)C(C(O)C2CNC(=N)N2C2OC(CO)C(O)C(O)C2O)NC(=O)C(C(O)C2CNC(=N)N2)NC(=O)C(Cc2ccc(OC3OC(CO)C(OC4OC5COC(CCc6ccccc6)OC5C(O)C4O)C(O)C3O)cc2)NC1=O (centres unmarked)" observed_result=4
compound="CC(c1ccccc1)C1NC(=O)CNC(=O)C(CO)NC(=O)C(C(O)C2CNC(=N)N2C2OC(CO)C(O)C(O)C2O)NC(=O)C(C(O)C2CNC(=N)N2)NC(=O)C(Cc2ccc(OC3OC(CO)C(OC4OC5COC(C6CCCC6)OC5C(O)C4O)C(O)C3O)cc2)NC1=O (centres unmarked)" observed_result=2

* * *

System: Enterococcus sp.
Test: in vitro antibacterial evaluation, MIC by broth dilution
Format: cell-based
Details: strain GC 6189; broth dilution, 18 hours at 35° C.
Numbered stars: 1 amine (or outer) side, 2 acyl side, 3 side chain; on linkers, the order of the positions; unused ones are H or OH. Square brackets hold non-standard residues; d marks the D form. Peptide text beside a SMILES is read from it. ξ: configuration not given here. X1 = N=C1NCC(C(O)C(N[*:1])C(=O)[*:2])N1C1OC(CO)C(O)C(O)C1O; ξEnduracididine(βξ-OH,4'ξ) = N=C1NCC(C(O)C(N)C(=O)O)N1; Cha = N[CH](CC1CCCCC1)C(=O)O
MIC Enterococcus faecalis (GC 6189): recorded values
ENDPOINT_NAME: MIC Enterococcus faecalis (GC 6189) (µg/mL)

molecule="N=C1NCC(C(O)C2NC(=O)C(CC3CCCCC3)NC(=O)C(CC3CCCCC3)NC(=O)CNC(=O)C(CO)NC(=O)C(C(O)C3CNC(=N)N3C3OC(CO)C(O)C(O)C3O)NC2=O)N1 (stereo not drawn) [Example 52] (cyclo(G[Cha][Cha][ξEnduracididine(βξ-OH,4'ξ)][X1]S); configuration not given here)" endpoint_name="MIC Enterococcus faecalis (GC 6189)" observed_result=32
molecule="CC(C)=CCCC(C)=CCOc1ccc(C2OCC3OC(OC4C(CO)OC(Oc5ccc(CC6NC(=O)C(C(C)c7ccccc7)NC(=O)CNC(=O)C(CO)NC(=O)C(C(O)C7CNC(=N)N7C7OC(CO)C(O)C(O)C7O)NC(=O)C(C(O)C7CNC(=N)N7)NC6=O)cc5)C(O)C4O)C(O)C(O)C3O2)cc1 (stereo not shown) [Example 183]" endpoint_name="MIC Enterococcus faecalis (GC 6189)" observed_result=2
molecule="CSc1ccc(C2OCC3OC(OC4C(CO)OC(Oc5ccc(CC6NC(=O)C(C(C)c7ccccc7)NC(=O)CNC(=O)C(CO)NC(=O)C(C(O)C7CNC(=N)N7C7OC(CO)C(O)C(O)C7O)NC(=O)C(C(O)C7CNC(=N)N7)NC6=O)cc5)C(O)C4O)C(O)C(O)C3O2)cc1[N+](=O)[O-] (stereo not shown) [Example 168]" endpoint_name="MIC Enterococcus faecalis (GC 6189)" observed_result=2
molecule="CC(c1ccccc1)C1NC(=O)CNC(=O)C(CO)NC(=O)C(C(O)C2CNC(=N)N2C2OC(CO)C(O)C(O)C2O)NC(=O)C(C(O)C2CNC(=NC(=O)C(C)(C)C)N2)NC(=O)C(Cc2ccc(OC3OC(CO)C(OC4OC(CO)C(O)C(O)C4O)C(O)C3O)cc2)NC1=O (stereo not shown) [Example 155]" endpoint_name="MIC Enterococcus faecalis (GC 6189)" observed_result=0.5

* * *

MIC Coagulase Negative Staphylococcus (GC 4547): recorded values
System: Staphylococcus sp.
Test: in vitro antibacterial evaluation, MIC by broth dilution
Type: cell-based
Settings: strain GC 4547; broth dilution, 18 hours at 35° C.
ENDPOINT_NAME: MIC Coagulase Negative Staphylococcus (GC 4547) (µg/mL)

compound="CCCC(C)C1OCC2OC(OC3C(CO)OC(Oc4ccc(CC5NC(=O)C(C(C)c6ccc(Cl)cc6)NC(=O)CNC(=O)C(CO)NC(=O)C(C(O)C6CNC(=N)N6C6OC(CO)C(O)C(O)C6O)NC(=O)C(C(O)C6CNC(=N)N6)NC5=O)cc4)C(O)C3O)C(O)C(O)C2O1 (centres unmarked)" target_under_test="Staphylococcus sp." readout_unit=µg/mL observed_result=1
compound="CC(c1ccccc1)C1NC(=O)CNC(=O)C(CO)NC(=O)C(C(O)C2CN(Cc3ccc4ccccc4c3)C(=N)N2C2OC(CO)C(O)C(O)C2O)NC(=O)C(C(O)C2CNC(=N)N2)NC(=O)C(Cc2ccc(OC3OC(CO)C(OC4OC5COC6(OC5C(O)C4O)C4CC5CC(C4)CC6C5)C(O)C3O)cc2)NC1=O (centres unmarked)" target_under_test="Staphylococcus sp." readout_unit=µg/mL observed_result=4
compound="CC(C)CC(=O)OC1C(O)C(OC2C(CO)OC(Oc3ccc(CC4NC(=O)C(C(C)c5ccccc5)NC(=O)CNC(=O)C(CO)NC(=O)C(C(O)C5CNC(=N)N5C5OC(CO)C(O)C(O)C5O)NC(=O)C(C(O)C5CNC(=N)N5)NC4=O)cc3)C(O)C2O)OC2COC3(OC21)C1CC2CC(C1)CC3C2 (centres unmarked)" target_under_test="Staphylococcus sp." readout_unit=µg/mL observed_result=4
compound="CC(c1ccccc1)C1NC(=O)CNC(=O)C(CO)NC(=O)C(C(O)C2CNC(=N)N2C2OC(CO)C(O)C(O)C2O)NC(=O)C(C(O)C2CNC(=N)N2)NC(=O)C(Cc2ccc(OC3OC(CO)C(OC4OC5COC6(CC(C)(C)CC(C)(C)C6)OC5C(O)C4O)C(O)C3O)cc2)NC1=O (centres unmarked)" target_under_test="Staphylococcus sp." readout_unit=µg/mL observed_result=1
compound="CC(c1ccccc1)C1NC(=O)CNC(=O)C(CO)NC(=O)C(C(O)C2CNC(=N)N2C2OC(CO)C(O)C(O)C2O)NC(=O)C(C(O)C2CNC(=N)N2)NC(=O)C(Cc2ccc3oc(-c4ccc(C(C)(C)C)cc4)nc3c2)NC1=O (centres unmarked)" target_under_test="Staphylococcus sp." readout_unit=µg/mL observed_result=2

* * *

MIC Staphylococcus aureus (GC 4542): recorded values
Tested on: Staphylococcus sp.
Assay: in vitro antibacterial evaluation, MIC by broth dilution
Format: cell-based
Details: broth dilution, 18 hours at 35° C.
ENDPOINT_NAME: MIC Staphylococcus aureus (GC 4542) (µg/mL)

compound="CCCCCCCC1OCC2OC(OC3C(CO)OC(Oc4ccc(CC5NC(=O)C(C(C)c6ccccc6)NC(=O)CNC(=O)C(CO)NC(=O)C(C(O)C6CNC(=N)N6C6OC(CO)C(O)C(O)C6O)NC(=O)C(C(O)C6CNC(=N)N6)NC5=O)cc4)C(O)C3O)C(O)C(O)C2O1 (stereo not shown) [Example 109]" endpoint_name="MIC Staphylococcus aureus (GC 4542)" limit_operator== observed_result=1
compound="CC(c1ccccc1)C1NC(=O)CNC(=O)C(CO)NC(=O)C(C(O)C2CNC(=N)N2C2OC(CO)C(O)C(O)C2O)NC(=O)C(C(O)C2CNC(=N)N2)NC(=O)C(Cc2ccc(OC3OC(CO)C(OC4OC(COCC=C(c5ccccc5)c5ccccc5)C(O)C(O)C4O)C(O)C3O)cc2)NC1=O (stereo not shown) [Example 241]" endpoint_name="MIC Staphylococcus aureus (GC 4542)" limit_operator== observed_result=2
compound="CC(C)C(=O)OCC1OC(OC2C(CO)OC(Oc3ccc(CC4NC(=O)C(Cc5ccccc5)NC(=O)CNC(=O)C(CO)NC(=O)C(C(O)C5CNC(=N)N5C5OC(CO)C(O)C(O)C5O)NC(=O)C(C(O)C5CNC(=N)N5)NC4=O)cc3)C(O)C2O)C(O)C(O)C1O (stereo not shown) [Example 283a]" endpoint_name="MIC Staphylococcus aureus (GC 4542)" limit_operator== observed_result=64
compound="CC(C)CC(=O)OC1C(OC2C(CO)OC(Oc3ccc(CC4NC(=O)C(C(C)c5ccccc5)NC(=O)CNC(=O)C(CO)NC(=O)C(CC5CNC(=N)N5C5OC(CO)C(O)C(O)C5O)NC(=O)C(CC5CNC(=N)N5)NC4=O)cc3)C(O)C2O)OC(CO)C(O)C1O (stereo not shown) [Example 277b]" endpoint_name="MIC Staphylococcus aureus (GC 4542)" limit_operator=> observed_result=64
compound="CCCCCNC(=O)OC1C(CO)OC(OC2C(CO)OC(Oc3ccc(CC4NC(=O)C(C(C)c5ccccc5)NC(=O)CNC(=O)C(CO)NC(=O)C(C(O)C5CNC(=N)N5C5OC(CO)C(O)C(O)C5O)NC(=O)C(C(O)C5CNC(=N)N5)NC4=O)cc3)C(O)C2O)C(O)C1O (stereo not shown) [Example 251]" endpoint_name="MIC Staphylococcus aureus (GC 4542)" limit_operator=> observed_result=64
compound="CCCC(C)C1OCC2OC(OC3C(CO)OC(Oc4ccc(CC5NC(=O)C(C(C)c6ccccc6)NC(=O)CNC(=O)C(CO)NC(=O)C(C(O)C6CNC(=N)N6C6OC(CO)C(O)C(O)C6O)NC(=O)C(C(O)C6CNC(=N)N6)NC5=O)cc4)C(O)C3O)C(O)C(O)C2O1 (stereo not shown) [Example 111]" endpoint_name="MIC Staphylococcus aureus (GC 4542)" limit_operator== observed_result=1
compound="CC(c1ccccc1)C1NC(=O)CNC(=O)C(CO)NC(=O)C(C(O)C2CNC(=N)N2C2OC(CO)C(O)C(O)C2O)NC(=O)C(C(O)C2CNC(=N)N2)NC(=O)C(Cc2ccc(OC3OC(COC(=O)OCc4ccccc4)C(OC4OC(CO)C(O)C(O)C4O)C(O)C3O)cc2)NC1=O (stereo not shown) [Example 101]" endpoint_name="MIC Staphylococcus aureus (GC 4542)" limit_operator== observed_result=8
compound="CC(c1ccccc1)C1NC(=O)CNC(=O)C(CO)NC(=O)C(C(O)C2CNC(=N)N2C2OC(CO)C(O)C(O)C2O)NC(=O)C(C(O)C2CNC(=N)N2)NC(=O)C(Cc2ccc(OC3OC(CO)C(OC4OC(CO)C(O)C(O)C4O)C(O)C3O)c(N)c2)NC1=O (stereo not shown) [Example 287]" endpoint_name="MIC Staphylococcus aureus (GC 4542)" limit_operator=> observed_result=64
compound="Cc1cccc(C2OCC3OC(OC4C(CO)OC(Oc5ccc(CC6NC(=O)C(C(C)c7ccccc7)NC(=O)CNC(=O)C(CO)NC(=O)C(C(O)C7CNC(=N)N7C7OC(CO)C(O)C(O)C7O)NC(=O)C(C(O)C7CNC(=N)N7)NC6=O)cc5)C(O)C4O)C(O)C(O)C3O2)c1 (stereo not shown) [Example 135]" endpoint_name="MIC Staphylococcus aureus (GC 4542)" limit_operator== observed_result=1
compound="CC(c1ccccc1)C1NC(=O)CNC(=O)C(CO)NC(=O)C(C(O)C2CNC(=N)N2C2OC(CO)C(O)C(O)C2O)NC(=O)C(C(O)C2CNC(=N)N2)NC(=O)C(Cc2ccc(OC3OC(CO)C(OC4OC5COC(Cc6ccc(Cl)cc6)OC5C(O)C4O)C(O)C3O)cc2)NC1=O (stereo not shown) [Example 120]" endpoint_name="MIC Staphylococcus aureus (GC 4542)" limit_operator=< observed_result=0.5
compound="CC(C)CC(=O)OC1C(O)C(CO)OC(OC2C(CO)OC(Oc3ccc(CC4NC(=O)C(C(C)c5ccc(Cl)cc5)NC(=O)CNC(=O)C(CO)NC(=O)C(C(O)C5CNC(=N)N5C5OC(CO)C(O)C(O)C5O)NC(=O)C(C(O)C5CNC(=N)N5)NC4=O)cc3)C(O)C2O)C1O (stereo not shown) [Example 262b]" endpoint_name="MIC Staphylococcus aureus (GC 4542)" limit_operator== observed_result=2
compound="COc1ccc(COC2C(CO)OC(OC3C(CO)OC(Oc4ccc(CC5NC(=O)C(C(C)c6ccccc6)NC(=O)CNC(=O)C(CO)NC(=O)C(C(O)C6CNC(=N)N6C6OC(CO)C(O)C(O)C6O)NC(=O)C(C(O)C6CNC(=N)N6)NC5=O)cc4)C(O)C3O)C(O)C2O)cc1OCc1ccccc1 (stereo not shown) [Example 239a]" endpoint_name="MIC Staphylococcus aureus (GC 4542)" limit_operator== observed_result=4
compound="CC(c1ccccc1)C1NC(=O)CNC(=O)C(CO)NC(=O)C(CC2CNC(=N)N2C2OC(CO)C(O)C(O)C2O)NC(=O)C(CC2CNC(=N)N2)NC(=O)C(Cc2ccc(OC3OC(CO)C(OC4OC(COCc5ccc(OCc6ccccc6)cc5)C(O)C(O)C4O)C(O)C3O)cc2)NC1=O (stereo not shown) [Example 246]" endpoint_name="MIC Staphylococcus aureus (GC 4542)" limit_operator== observed_result=4
